The reported numbers originate from the supplement of paper PMC8671470.

Test system: HL-60
Experiment: cell viability (% survival relative to DMSO control); higher = less cytotoxic
Settings: 0.001 µM; 72 h; co-treatment: pictilisib 100 nM
Collected cell viability values appear next to each entry.
Report the figure in % without appending any unit label.

Item under review: CC(C)(F)C[C@H](N[C@@H](c1ccc(-c2ccc(S(C)(=O)=O)cc2)cc1)C(F)(F)F)C(=O)NC1(C#N)CC1 [Odanacatib] . Reported cell viability?
66.7

Item under review: CC(C)(CCCCCCCCCCC(C)(C)CC(=O)O)CC(=O)O [MEDICA 16] . Reported cell viability?
97.8

Item under review: Fc1ccc(CNc2ncnc3ccc(F)cc23)cc1 [Spautin 1] . Reported cell viability?
100

Item under review: Cc1[nH]n(-c2ccccc2)c(=O)c1C1(C(F)(F)F)C(=O)N(c2ccccc2)C2=C1C(=O)CC(C)(C)C2 (stereo not drawn) . Reported cell viability?
97.2

Item under review: Cc1cc(O)c2c(c1)C(=O)c1cc(O)cc(O)c1C2=O [Emodin] . Reported cell viability?
96.6

Item under review: Nc1ccn([C@@H]2O[C@H](CO)[C@@H](O)C2(F)F)c(=O)n1 [Gemcitabine] . Reported cell viability?
97.8

Item under review: O[C@H]1[C@H](O)[C@@H](O)CN2CC[C@H](O)[C@H]12 [Castanospermine] . Reported cell viability?
108

Item under review: NCc1ccc(S(N)(=O)=O)cc1 [4-Homosulfanilamide] . Reported cell viability?
98.6

Item under review: O=C(CCl)N(CCCNC(=O)C(F)(F)F)c1ccc([N+](=O)[O-])cc1 [ML175] . Reported cell viability?
101

Item under review: CCCC(CCC)C(=O)O [Valproic acid] . Reported cell viability?
98.6

Item under review: OCCN(CCO)c1nc(N2CCCCC2)c2nc(N(CCO)CCO)nc(N3CCCCC3)c2n1 [Dipyridamole] . Reported cell viability?
90.6

Item under review: CC(C)(CS(=O)(=O)[O-])NC(=O)CC[N+](C)(C)CCO . Reported cell viability?
102

Item under review: CNC(=C[N+](=O)[O-])NCCSCc1ccc(CN(C)C)o1 [Ranitidine] . Reported cell viability?
95.9

Item under review: N[C@@H](CCC(=O)N[C@@H](CS)C(=O)NCC(=O)O)C(=O)O [Glutathione] . Reported cell viability?
96.6

Item under review: N=C(N)c1ccc(N=NNc2ccc(C(=N)N)cc2)cc1 [Diminazene] . Reported cell viability?
83.5
